target: human orexin-1 receptor (Homo sapiens (Human), UniProt O43613); assay: In vitro assay: intracellular calcium measurements (FLIPR), antagonistic activity; assay type: cell-based; details: CHO cells, 3 nM orexin-A, compound incubation 120 min; marked values are geometric means of n = 2-6; read-out: IC50 OX1
Sequence (O43613 whole entry): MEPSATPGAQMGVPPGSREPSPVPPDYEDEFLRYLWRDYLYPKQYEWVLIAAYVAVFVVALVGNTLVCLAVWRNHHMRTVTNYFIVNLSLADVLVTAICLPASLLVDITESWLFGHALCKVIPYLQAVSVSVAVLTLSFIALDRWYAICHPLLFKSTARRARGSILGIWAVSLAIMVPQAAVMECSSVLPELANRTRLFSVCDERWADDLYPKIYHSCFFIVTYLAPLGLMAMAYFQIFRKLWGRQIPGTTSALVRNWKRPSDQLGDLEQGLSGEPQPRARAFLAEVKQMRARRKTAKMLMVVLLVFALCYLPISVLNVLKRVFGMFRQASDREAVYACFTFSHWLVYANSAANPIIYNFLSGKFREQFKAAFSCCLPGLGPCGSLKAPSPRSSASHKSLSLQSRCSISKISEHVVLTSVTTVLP
MEASUREMENT TYPE: IC50 (nM)
Only the number, expressed in nM, is required.

// below: answered compounds
CCOc1cccc(F)c1[C@@H]1C[C@@H](Cl)C(=O)N1Cc1ccc(OC(F)(F)F)cc1 (racemic) [Example 333] : 965
CCOc1cccc(F)c1C1CC(C)C(=O)N1Cc1cccc(OC(F)F)c1 (stereo not drawn) [Example 374] : 976

Query: What does the data say about its IC50? Entry: COc1cccc(OC)c1C1CCCCC(=O)N1Cc1cnc2ccccc2c1 (stereo not drawn) [Example 80]
Reply: 715

* * *

target: human orexin-2 receptor (Homo sapiens (Human), UniProt O43614); experiment: In vitro assay: intracellular calcium measurements (FLIPR), antagonistic activity; type: cell-based; settings: CHO cells, 3 nM orexin-A, compound incubation 120 min; marked values are geometric means of n = 2-6; read-out: IC50 OX2
Sequence (O43614 whole entry): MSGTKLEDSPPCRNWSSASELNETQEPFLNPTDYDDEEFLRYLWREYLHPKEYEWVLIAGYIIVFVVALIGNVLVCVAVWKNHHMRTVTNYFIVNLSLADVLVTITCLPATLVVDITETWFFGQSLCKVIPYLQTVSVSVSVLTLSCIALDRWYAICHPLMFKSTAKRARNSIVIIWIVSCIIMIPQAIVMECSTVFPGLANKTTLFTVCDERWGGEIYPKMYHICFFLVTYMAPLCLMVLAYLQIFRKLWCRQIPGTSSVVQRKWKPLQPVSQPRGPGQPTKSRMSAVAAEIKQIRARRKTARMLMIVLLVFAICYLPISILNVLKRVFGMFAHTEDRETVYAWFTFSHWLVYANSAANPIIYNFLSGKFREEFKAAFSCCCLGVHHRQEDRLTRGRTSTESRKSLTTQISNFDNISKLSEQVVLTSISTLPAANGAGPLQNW
# pIC50 per record follows
Worth noting: pIC50 values are minus log10 of concentrations stated in mol/L.

Some solved entries appear below for comparison.
COc1cccc(F)c1[C@@H]1C[C@H](F)C(=O)N1Cc1ccc(OC(F)(F)F)cc1 (racemic) : 7.18
COc1cncc(OC)c1C1CCCCC(=O)N1Cc1cccc(-c2csc(C)n2)c1 (centres unmarked) : 7.19
COc1cccc(OC)c1C1CCCC(=O)N1Cc1cccc(-c2ccccn2)n1 (centres unmarked) : 7.06
CC(C)Oc1cccc(F)c1C1CC(C)C(=O)N1Cc1ccc(OC(F)(F)F)cc1 (centres unmarked) : 7.17

Query: Which value of pIC50 has been reported for COc1ccc2ncoc2c1C1CCCC(=O)N1Cc1cccc(-c2csc(C)n2)c1 (centres unmarked) in the records?
Reply: 6.99

Values compiled from patent US9242970B2.
